Cited source for all entries: paper PMC11013419

Target: recombined human maltase-glucoamylase (MGAM) (Homo sapiens, UniProt O43451)
Sequence (O43451 whole entry): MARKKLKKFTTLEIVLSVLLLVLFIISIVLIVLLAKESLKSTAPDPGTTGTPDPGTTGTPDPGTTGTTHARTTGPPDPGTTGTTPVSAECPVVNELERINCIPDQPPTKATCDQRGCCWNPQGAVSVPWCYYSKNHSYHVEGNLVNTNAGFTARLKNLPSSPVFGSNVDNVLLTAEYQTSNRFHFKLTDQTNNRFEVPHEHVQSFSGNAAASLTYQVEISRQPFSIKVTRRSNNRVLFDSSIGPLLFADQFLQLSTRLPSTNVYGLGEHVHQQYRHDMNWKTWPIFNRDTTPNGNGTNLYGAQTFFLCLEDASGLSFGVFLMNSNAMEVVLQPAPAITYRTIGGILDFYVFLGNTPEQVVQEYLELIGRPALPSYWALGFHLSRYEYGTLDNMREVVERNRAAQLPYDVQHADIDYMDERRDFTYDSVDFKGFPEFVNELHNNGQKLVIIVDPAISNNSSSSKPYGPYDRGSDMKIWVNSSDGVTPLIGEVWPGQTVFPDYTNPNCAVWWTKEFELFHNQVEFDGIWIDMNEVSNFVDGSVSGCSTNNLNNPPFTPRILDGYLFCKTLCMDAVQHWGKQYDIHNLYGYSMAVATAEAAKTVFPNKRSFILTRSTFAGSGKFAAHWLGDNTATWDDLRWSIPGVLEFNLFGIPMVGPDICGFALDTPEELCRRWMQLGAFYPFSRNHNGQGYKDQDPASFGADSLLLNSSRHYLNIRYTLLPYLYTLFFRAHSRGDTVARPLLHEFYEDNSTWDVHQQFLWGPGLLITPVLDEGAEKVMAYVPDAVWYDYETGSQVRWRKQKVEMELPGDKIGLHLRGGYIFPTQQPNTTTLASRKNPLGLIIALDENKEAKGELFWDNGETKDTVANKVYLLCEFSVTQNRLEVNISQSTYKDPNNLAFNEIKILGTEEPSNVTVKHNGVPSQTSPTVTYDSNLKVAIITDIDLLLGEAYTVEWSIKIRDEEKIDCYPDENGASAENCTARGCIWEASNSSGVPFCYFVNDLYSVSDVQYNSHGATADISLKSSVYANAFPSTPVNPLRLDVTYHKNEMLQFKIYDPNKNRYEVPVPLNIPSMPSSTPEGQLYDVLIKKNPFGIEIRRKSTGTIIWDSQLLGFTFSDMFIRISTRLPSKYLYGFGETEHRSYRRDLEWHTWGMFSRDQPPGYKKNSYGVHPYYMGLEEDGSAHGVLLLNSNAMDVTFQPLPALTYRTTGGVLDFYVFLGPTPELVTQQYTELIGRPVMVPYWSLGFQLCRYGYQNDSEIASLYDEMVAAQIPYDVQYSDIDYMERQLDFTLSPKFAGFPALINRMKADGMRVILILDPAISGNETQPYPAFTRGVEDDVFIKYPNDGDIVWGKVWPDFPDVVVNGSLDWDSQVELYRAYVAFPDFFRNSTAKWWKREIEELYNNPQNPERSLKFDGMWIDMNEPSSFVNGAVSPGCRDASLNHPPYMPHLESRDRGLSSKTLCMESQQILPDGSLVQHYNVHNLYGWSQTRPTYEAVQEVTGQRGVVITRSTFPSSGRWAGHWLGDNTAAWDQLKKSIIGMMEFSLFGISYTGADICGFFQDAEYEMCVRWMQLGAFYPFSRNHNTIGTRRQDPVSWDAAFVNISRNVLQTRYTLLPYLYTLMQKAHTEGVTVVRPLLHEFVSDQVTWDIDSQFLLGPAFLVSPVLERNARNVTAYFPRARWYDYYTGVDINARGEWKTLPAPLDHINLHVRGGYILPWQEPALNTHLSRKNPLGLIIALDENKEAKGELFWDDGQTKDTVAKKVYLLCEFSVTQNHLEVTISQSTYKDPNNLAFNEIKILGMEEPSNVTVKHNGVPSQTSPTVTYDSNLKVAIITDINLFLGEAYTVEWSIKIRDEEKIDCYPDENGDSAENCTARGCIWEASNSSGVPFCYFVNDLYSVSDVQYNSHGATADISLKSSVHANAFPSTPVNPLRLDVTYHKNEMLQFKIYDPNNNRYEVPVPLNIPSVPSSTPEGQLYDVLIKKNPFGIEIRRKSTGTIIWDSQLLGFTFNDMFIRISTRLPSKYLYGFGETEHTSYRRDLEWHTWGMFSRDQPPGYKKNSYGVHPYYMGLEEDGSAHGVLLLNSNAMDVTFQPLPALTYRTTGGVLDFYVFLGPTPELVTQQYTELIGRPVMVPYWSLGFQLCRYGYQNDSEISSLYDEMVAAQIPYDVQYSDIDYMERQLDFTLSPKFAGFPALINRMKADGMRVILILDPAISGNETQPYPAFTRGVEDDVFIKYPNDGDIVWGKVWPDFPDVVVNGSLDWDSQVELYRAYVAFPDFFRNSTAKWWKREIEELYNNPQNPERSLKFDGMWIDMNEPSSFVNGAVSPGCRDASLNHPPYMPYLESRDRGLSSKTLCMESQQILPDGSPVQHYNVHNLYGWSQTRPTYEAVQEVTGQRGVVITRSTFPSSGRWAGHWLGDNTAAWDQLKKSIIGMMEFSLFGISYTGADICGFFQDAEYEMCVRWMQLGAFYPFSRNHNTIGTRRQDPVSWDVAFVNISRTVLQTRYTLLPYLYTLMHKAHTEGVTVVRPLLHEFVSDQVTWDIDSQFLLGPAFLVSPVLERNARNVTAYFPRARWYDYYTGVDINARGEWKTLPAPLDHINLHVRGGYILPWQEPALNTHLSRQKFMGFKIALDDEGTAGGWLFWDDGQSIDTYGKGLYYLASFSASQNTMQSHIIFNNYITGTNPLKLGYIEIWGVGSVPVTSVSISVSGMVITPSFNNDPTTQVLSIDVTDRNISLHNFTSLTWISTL
Assay: MGAM inhibition assay (glucose released from maltose)
Details: maltose substrate, 37 °C, pH 6.4
parameter: IC50 (mM)
Report as a plain number; the unit mM is understood.

Study these solved cases before continuing.
[
  {
    "compound": "OC1COC(OC2COC(O)C(O)C2O)C(O)C1O (stereo not drawn) [X2, β-(1→4)-xylobiose]",
    "unit.label": "mM",
    "IC50": 45
  },
  {
    "compound": "OC1COC(OC2C(O)COC(OC3COC(OC4COC(O)C(O)C4O)C(O)C3O)C2O)C(O)C1O (stereo not drawn) [DX4, β-(1→3)-xylosyl-β-(1→4)-xylotriose]",
    "unit.label": "mM",
    "IC50": 23.6
  }
]

Now for another entry.
Req: Dear colleague, I am looking for the recorded IC50 of the following compound: OC1COC(OC2C(O)COC(OC3COC(O)C(O)C3O)C2O)C(O)C1O (stereo not drawn) [DX3, β-(1→3)-xylosyl-β-(1→4)-xylobiose]
Resp: 32.3

====

Target: MGAM (Homo sapiens, UniProt O43451)
Sequence (O43451 whole entry): as above
Listing of entries alongside the reported Ki.

[
  {
    "molecule": "OC1COC(OC2C(O)COC(OC3COC(O)C(O)C3O)C2O)C(O)C1O (centres unmarked)",
    "Ki": "44.2 mM"
  }
]

Turning now to a further molecule:
Req: Tell me the measured Ki of OC1COC(OC2C(O)COC(OC3COC(OC4COC(O)C(O)C4O)C(O)C3O)C2O)C(O)C1O (centres unmarked) , please.
Resp: 42.7 mM

====

Each record here notes measured pIC50.
Target: α-amylase from porcine pancreas (Sus scrofa, UniProt P00690)
Sequence (P00690 16-511): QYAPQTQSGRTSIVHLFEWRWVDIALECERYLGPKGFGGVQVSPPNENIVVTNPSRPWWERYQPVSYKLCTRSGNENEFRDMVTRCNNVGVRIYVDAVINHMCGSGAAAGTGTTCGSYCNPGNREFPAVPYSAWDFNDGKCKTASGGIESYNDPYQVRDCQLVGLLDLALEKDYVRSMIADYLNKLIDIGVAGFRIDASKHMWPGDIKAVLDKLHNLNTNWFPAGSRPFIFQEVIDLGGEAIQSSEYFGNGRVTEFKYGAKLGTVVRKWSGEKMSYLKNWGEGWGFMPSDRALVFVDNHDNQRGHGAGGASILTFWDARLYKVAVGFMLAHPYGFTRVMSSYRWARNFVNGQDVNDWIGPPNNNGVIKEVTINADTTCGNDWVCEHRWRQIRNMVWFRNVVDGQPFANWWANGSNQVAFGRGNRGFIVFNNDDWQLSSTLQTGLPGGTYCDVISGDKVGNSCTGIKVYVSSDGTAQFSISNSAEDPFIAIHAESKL
The quantity pIC50 is defined as the negative base-10 logarithm of the molar concentration.

[
  {
    "compound": "OC1COC(OC2COC(O)C(O)C2O)C(O)C1O (centres unmarked)",
    "pIC50": 1.19
  }
]

Req: What pIC50 value was documented for this compound, OC1COC(OC2C(O)COC(OC3COC(O)C(O)C3O)C2O)C(O)C1O (centres unmarked) ?
Resp: 0.89
